B1: HDV Ribozyme (parent)
chain: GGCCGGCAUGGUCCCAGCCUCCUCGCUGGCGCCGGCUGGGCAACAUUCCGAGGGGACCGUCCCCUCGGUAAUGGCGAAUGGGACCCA

# Variants of: B1
# Test protocol: self-cleavage, relative activity (ratio to wild type); higher = more cleavage; co-transcriptional
Please provide measured self-cleavage for the entries that follow.
Simply state the number, no unit and no words.

Short answer for GGCCGGCAUGGUCCCAGCCUCCUCGCUGGCGCCGGCUGGGCAACAUUCCGUGGGUACCGUCCCCUCGGUAAUGGCGAAUGGGACCCA : self-cleavage was 0.989

Short answer for GGCGGGCAUGGUCCCAGCCUCCUCGCUGGCGCCGGCUGGGCAACAUUCCGAGGGGACCGUCCCCUCGGUAAUGGCGAAUCGGACCCA : self-cleavage was 0.0906

Short answer for GGCCGGCAUGGUCCCAGCCUCCUCGCUGGCGCCGGCUGGGCAACAUUCCGAGGGGACCGUCCCCUUGCUAAUGGCGAAUGGGACCCA : self-cleavage was 0.753

Short answer for GGCCGGCAUGGUCCCAGCCUCCUCGCUGGUGCCGGCUGGGCAACAUUCCGAGGGGACCGUCCCCUCGGUAAUGGCGAAUGGGUCCCA : self-cleavage was 0.151

Short answer for GGCCGGCAUGGUCCCAGCCUCCUCUCUGGCGCCGGCUGGACAACAUUCCGAGGGGACCGUCCCCUCGGUAAUGGCGAAUGGGACCCA : self-cleavage was 0.111

Short answer for GGCCGGCAUGGUCCCAGCCUCCUCGCUGGCGCCGGCUGGGCAACAUUCCGAGGGGACCGUCCCCUCGGUAAUGCCGAAUGGGCCCCA : self-cleavage was 0.295

Short answer for GGCCGGCAUGGUCCCAGCCUCCUCGCUGGCGGCGGCUGGGCAACAUUCCGAGGGAACCGUCCCCUCGGUAAUGGCGAAUGGGACCCA : self-cleavage was 0.0841

Short answer for UGCCGGCAUGGUCCCAGCCUACUCGCUGGCGCCGGCUGGGCAACAUUCCGAGGGGACCGUCCCCUCGGUAAUGGCGAAUGGGACCCA : self-cleavage was 0.397

Short answer for GGCCGGCAUGGUCCCAGCCUCCUCGCUGGCGCCGGCUAGACAACAUUCCGAGGGGACCGUCCCCUCGGUAAUGGCGAAUGGGACCCA : self-cleavage was 0.262

Short answer for GGCCGGCAUGGUCCCAGCCUCCUCGCUGGCGCCGGCUGGGCAACAUUCCGAGGGGACCGUCCCCUCGGUAAUGGCAAAUGGGACGCA : self-cleavage was 0.962

Short answer for GGCCGGCAUGGUCCCAGCCUCCUCGCUGGCGCCGGCUGGGCAACAUUCCGAGGGGGCCGUCCCCUCGGUAAUGGCGAAUGGGACUCA : self-cleavage was 1.02

Short answer for GGCCGGCAUGGUCCCAGCCUCCUCGCUGGCGCCGGCUGGGCAACAUUCCGAGGGGAGCGUCCCCUCGGUAAUCGCGAAUGGGACCCA : self-cleavage was 0.495

Short answer for GGCCGGCAUGCUCCCAGCCUCCUCGCUGGCGCCGGCUGGGCAAAAUUCCGAGGGGACCGUCCCCUCGGUAAUGGCGAAUGGGACCCA : self-cleavage was 0.0923

Short answer for GGCCGGCAUGGACCCAGCCUCCUCGCUGGCGCCGGCUGGGCAACAUUCCGAGGGGACUGUCCCCUCGGUAAUGGCGAAUGGGACCCA : self-cleavage was 0.302

Short answer for GGCCGGCAUGGUCCCAGCCUCCUCGCUGGCGCCGGCUGGGCAACAUUCCGAGGGGACCGUCCCCUCGGUAGUGGCGAAUGGGACCCG : self-cleavage was 1.06

Short answer for GGCCGGCAUGGUCCCAGCCUCCUCGCUGGCGCCGGCUGGGCAACAUUCCGAGGAGACCGUCCGCUCGGUAAUGGCGAAUGGGACCCA : self-cleavage was 0.816

Short answer for GGCCGGCAUGGCCCCAGCCUCCUCGCUGGCGCCGGCUGGGCAACAUUCCGUGGGGACCGUCCCCUCGGUAAUGGCGAAUGGGACCCA : self-cleavage was 0.359

Short answer for GGCCGGCAUCGUCCCAGCCUCCUCGCUGGCGCCGGCUGGGCAACAUUCCGAGGGGACCGUCCCCUCGAUAAUGGCGAAUGGGACCCA : self-cleavage was 0.706

Short answer for GGCCGGCAUUGUCCCAGCCGCCUCGCUGGCGCCGGCUGGGCAACAUUCCGAGGGGACCGUCCCCUCGGUAAUGGCGAAUGGGACCCA : self-cleavage was 0.113

Short answer for GGCCGGCAUGGUCCCAGCCUCCUCGCUGCCGCCGGCUGGGCAACAUUCCGAGGGGACCGUCCCCUCGGUAAUGGCGAAUGGGACCAA : self-cleavage was 0.0519

Short answer for CGCCGGCAUGGUCCCAGCCUCCUCGCUGGCGCCGGCUGGGCAACAUUCCGAGGGGACCGUCCCCUCGGUAAUGGCGAAUGGGACCAA : self-cleavage was 0.0978

Short answer for GGCGGGCAUGGUCCCAGCGUCCUCGCUGGCGCCGGCUGGGCAACAUUCCGAGGGGACCGUCCCCUCGGUAAUGGCGAAUGGGACCCA : self-cleavage was 0.086

Short answer for GGCCGGCGUGGUCCCAGCCUCCUCGCUGGCGCCGGCUGAGCAACAUUCCGAGGGGACCGUCCCCUCGGUAAUGGCGAAUGGGACCCA : self-cleavage was 0.302

Short answer for GGCCGGCAUGGUCCCAGCCUCCUCGCUGGCGCCGGCUGGGGAACAUUCCGAGGGGACCGUCCCCUCGGUAAUGGCGAACGGGACCCA : self-cleavage was 0.35

Short answer for GGCCGGCAUGGUCCCAGCCUCCUCGCUGGCGCCGGCUGGGCAACAUUACGAGGGGACCGUCCCCUCGGUAAUGGCGAAUGGGACUCA : self-cleavage was 1.16

Short answer for GGCCGGCAUGGUCCCAGCCUCCUCGCUAGCGCCGGCUGGGCAACAUUCCGAGGGGACCGUCCCCUCGGUAAUGGCGAAUGGUACCCA : self-cleavage was 0.138

Short answer for GGCCGGCAUGGUCCCAGCCUCCGCGCUGGCGCCGGCUGGGCAACACUCCGAGGGGACCGUCCCCUCGGUAAUGGCGAAUGGGACCCA : self-cleavage was 0.462

Short answer for GGCCGGGAUGGUCCCAGCCUCCUCGCUGGCGCCGGCUGGGCAACAUUCCGAGCGGACCGUCCCCUCGGUAAUGGCGAAUGGGACCCA : self-cleavage was 0

Short answer for GGCCGGCAUGGUCCCAGCCGCCUCGCUGGCGCCGGCUGGGCAACAUUCCGAGGGGACCGUCCCCUCGGUAAUCGCGAAUGGGACCCA : self-cleavage was 0

Short answer for GGACGGCAUGGUCCCAGCCUCCUCGCUGGCGCCGUCUGGGCAACAUUCCGAGGGGACCGUCCCCUCGGUAAUGGCGAAUGGGACCCA : self-cleavage was 1.14

Short answer for GGCCGGCAUGGUCCCAGCAUCCUCGCUGGCGCCGGCUGGGCAACAUUCCGAGGGGACCGUCCCCUCGGUUAUGGCGAAUGGGACCCA : self-cleavage was 0.277

Short answer for GGCCGGCAUGGUCCCAGCCUCCUCGAUGGCGCCGGCUGGGCAACAUUCCGAGGGGACCGUCCCCUCGGUAAUGGCGAAUGGCACCCA : self-cleavage was 0.342

Short answer for GGCCGGCAUGGUCCCAGCCUCCUCGCCGGCGCCGGCUGGGCAACAUUCCGAGGGGACCCUCCCCUCGGUAAUGGCGAAUGGGACCCA : self-cleavage was 0.751

Short answer for GUCCGGCAUGGUCCCAGCCUCCUCGCUGGCGCCGGCUGGGCAACAUUCCGAGGGGACCGUCCCGUCGGUAAUGGCGAAUGGGACCCA : self-cleavage was 0.0791

Short answer for GGCCGGCAUGGUCCCAGCCUCCUCGCUGGCGCCGGCUGGGCAACAUUCCGAGGGUACCAUCCCCUCGGUAAUGGCGAAUGGGACCCA : self-cleavage was 1.14

Short answer for GGCCGGCAUGGUCCCAGCCUCCUCGCUGGCGCCGGCUGGGCAAAAUUCCGAGGGGACCGUCCUCUCGGUAAUGGCGAAUGGGACCCA : self-cleavage was 0.973

Short answer for GGCCGGCAUGGUCCCCGCCUCCUCGCUGGCGCCGGCUGGGCAACAUUCCGAGGGGACCGUCCCCUCGGAAAUGGCGAAUGGGACCCA : self-cleavage was 0.767

Short answer for GGCCGGCAUAGUCCCAGCCUCCUCGCUGGCUCCGGCUGGGCAACAUUCCGAGGGGACCGUCCCCUCGGUAAUGGCGAAUGGGACCCA : self-cleavage was 0.226

Short answer for GACCGGCAUGGUCCCAGCGUCCUCGCUGGCGCCGGCUGGGCAACAUUCCGAGGGGACCGUCCCCUCGGUAAUGGCGAAUGGGACCCA : self-cleavage was 0
